Experiment: binders of probe aFST on microarray, primary screen, stem cell growth factor project, biochemical, small-molecule microarray, fluorescence 635/667 (AID 1086);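 note: score merges 667 nm fluorescence with signal-to-noise of each printed compound spot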
Conditions: higher = more signal
Cut-off 0.4 on composite z-score, inclusive. At or above means 1.0; below means 0.0.

compound=C[N+](C)(C)CCCCCCNC(=O)[C@@H]1C[C@@H]2C(=O)N3CCC[C@H]3C(=O)N2[C@@H]1c1cccc(OCCO)c1 class=0.0
compound="COC(=O)CC1OC1[C@H](C)[C@@H](OC)C(C)C (some centres not stated)" class=0.0
compound=CCOC(=O)CCN1C(=O)[C@H]2[C@H]3[C@H](O)C=CC(=O)[C@@H]3CC[C@H]2C1=O class=0.0
compound=C=CC[C@@H]1C=C[C@H](ON=C2c3cc(OC)ccc3O[C@H](c3cccc(OC)c3)[C@H]2O)[C@@H](CO)O1 class=0.0
compound=O=C1[C@H]2[C@H]3[C@H](O)[C@H](O)CC(=NOC[C@@H](O)COCc4ccco4)[C@H]3CC[C@H]2C(=O)N1Cc1ccc2c(c1)OCO2 class=0.0
compound=COCCOC(=O)N1C(=O)[C@@]2(c3cc(C#Cc4ccc(OC)cc4)ccc31)[C@H](C(=O)N1CCN(c3ncccn3)CC1)[C@H]1C(=O)O[C@H](c3ccccc3)[C@H](c3ccccc3)N1[C@@H]2c1ccc(OCCO)cc1 class=0.0
compound=CO[C@@H]1COC(=O)CC=C[C@@H](C)COC(=O)[C@H](COCc2ccccc2)NC(=O)CC=C[C@H]1C class=0.0
compound=COc1ccc([Si](C)(C)[C@H]2[C@H](CC(=O)N3CCC[C@H]3CO)O[C@@]3(C(=O)N(Cc4cccc(N5C(=O)COc6ccccc65)c4)c4ccccc43)[C@@H]2C)cc1 class=0.0
compound=CCOC(=O)NN=C1C[C@@H](O)[C@@H](O)[C@@H]2[C@@H]3C(=O)N(C[C@@H]4CCCO4)C(=O)[C@@H]3CC[C@@H]12 class=0.0
compound=CO[C@H]1COC(=O)[C@@H]2CCCN2C(=O)CC=C[C@@H](C)[C@H](OC)COC(=O)CC=C[C@@H]1C class=0.0
compound=CC(CCC(=O)OC[C@H]1O[C@H](C#Cc2ccccc2)C=C[C@@H]1Oc1ccc(C)cc1)=NO[C@@H](C)c1cn([C@H](CO)Cc2ccccc2)nn1 class=0.0
compound=CC(C)NC(=O)[C@@]1(c2ccc([N+](=O)[O-])cc2)CC(=O)N(CC23CC4CC(CC(C4)C2)C3)[C@@H]1c1ccc(CO)cc1I class=1.0
compound="CC(CCN1CCCCc2nc(C)c(C)cc21)=NOC(C)CN1CCCc2nc(C)c(C)cc21 (configuration not stated)" class=1.0
compound="CCOC(=O)[C@H](Cc1ccccc1)NC(=O)CCC1CC(OC(=O)NCCc2ccc(F)cc2)CC2(CCCC(COC(=O)NCC(c3ccccc3)c3ccccc3)O2)O1 (some centres not stated)" class=1.0
compound=COCCOC(=O)N1C(=O)[C@@]2(c3cc(C#Cc4ccc(OC)cc4)ccc31)[C@H](c1ccc(O)cc1)N1[C@H](c3ccccc3)[C@H](c3ccccc3)OC(=O)[C@H]1[C@@H]2C(N)=O class=1.0
compound=O=C(CS)NCCCCCNC(=O)[C@H]1C[C@H]2C(=O)N3CCC[C@H]3C(=O)N2[C@H]1c1cccc(OCCO)c1 class=1.0
compound=CC(CCC(=O)OC[C@H]1O[C@H](C#Cc2ccccc2)C=C[C@@H]1Oc1ccc(C)cc1)=NOC[C@@H](O)[C@H]1O[C@@H]2OC(C)(C)O[C@@H]2[C@H]1O class=0.0
compound=CCc1cc2c(nc1CC)CCN(CCC(C)=NOC[C@@H](O)COCc1ccco1)C2 class=1.0
compound=CCCCc1nc2c(c3c1C[C@H](C)OC3)CN(CCC(C)C)CC2 class=0.0
compound=O=C1[C@H]2[C@H]3[C@H](O)[C@H](O)CC(=NOCc4ccccc4)[C@H]3CC[C@H]2C(=O)N1C[C@@H]1CCCO1 class=0.0
compound=CCOC(=O)C[C@H]1[C@H](OC(=O)c2cc3ccccc3oc2=O)[C@@H](NC(=O)c2ccc3ccccc3n2)c2cc(OCCCO)ccc2N1C(=O)c1ccccc1 class=0.0
compound=O=C(CS)NCCCCCNC(=O)[C@@H]1C[C@@H]2C(=O)N[C@@H](Cc3ccccc3)C(=O)N2[C@@H]1c1ccc(O)cc1 class=0.0
compound="CC(=O)O[C@H]1C2=C(C(=O)[C@@H]3O[C@@H]31)[C@H]1C(C)O[C@@H]2[C@@]23C(=O)[C@@H]4O[C@@H]4[C@@H](O)C2=CO[C@H](C)[C@@H]13 (some centres not stated)" class=0.0
compound=CCOC(=O)CCN1C(=O)[C@H]2[C@H]3[C@H](O)[C@H](O)CC(=O)[C@H]3CC[C@H]2C1=O class=0.0
compound=O=C1O[C@@H](c2ccccc2)[C@@H](c2ccccc2)N2[C@@H](c3ccc(OCCO)cc3)[C@]3(C(=O)Nc4ccccc43)[C@@H](C(=O)N3CCN(c4ncccn4)CC3)[C@H]12 class=1.0
compound=CC(C)=CCCC(C)=CCON=C1C[C@@H](O)[C@@H](O)[C@@H]2[C@@H]3C(=O)N(C[C@@H]4CCCO4)C(=O)[C@@H]3CC[C@@H]12 class=0.0
compound="CCCCCN1CC=CC23O[C@@H]4C=CCOC(=O)[C@@H]4[C@H]2C(=O)N(C(CO)C(C)C)[C@@H]3C1=O (some centres not stated)" class=0.0

* * *

Assay: PSAC antagonists in infected red cells, primary screen, cell-based, P. falciparum Indochina, OD700, 2 h (AID 1155);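 note: lysis reports solute entry through the parasite surface anion channel PSAC; channel blockers reduce lysis of infected cells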
Conditions: P. falciparum Indochina infected erythrocytes, osmotic lysis OD700; higher = more signal, called active from +8 up or from −8 down
Readout type: z-score

compound="COC(=O)[C@H](C)NC(=O)CCC1CC(OC(=O)NCc2ccc3c(c2)OCO3)CC2(CCCC(COC(=O)NCCOc3ccccc3)O2)O1 (some centres not stated)" readout_type=z-score measurement=-0.123
compound=CC(=O)OC[C@H]1O[C@H](CCON=C(C)CCC(=O)OC[C@H]2O[C@H](C#Cc3ccccc3)C=C[C@@H]2Oc2ccc(C)cc2)C=C[C@@H]1OC(C)=O readout_type=z-score measurement=1.43
compound=COc1cccc([C@H]2Oc3ccc(OC)cc3C(=NO[C@H](C)c3cn([C@@H]4COC[C@H]4O)nn3)[C@@H]2O)c1 readout_type=z-score measurement=-1.17
compound=COC(=O)[C@@H]1CC[C@H](C)[C@@H](c2ccc(C)cc2)N1C(=O)c1ccc(C=NOC[C@@H](O)COCc2ccco2)cc1 readout_type=z-score measurement=0.944
compound=COCC(=C=CC[C@@H](O)c1ccccc1OCCO)CCO readout_type=z-score measurement=-0.0233
compound=CC(=O)OC[C@H]1O[C@@H](ON=C(C)CCN2CCc3nc(-c4ccccc4)c(-c4ccccc4)cc3C2)[C@H](OC(C)=O)[C@@H](OC(C)=O)[C@@H]1OC(C)=O readout_type=z-score measurement=0.327
compound="CC(CCN1CCCCc2nc(C)c(C)cc21)=NOC(C)CN1CCCc2nc(C)c(C)cc21 (configuration not stated)" readout_type=z-score measurement=0.549
compound="Cc1ccc(C2CC=C(C(=O)O)CN2S(=O)(=O)c2ccc(C)cc2)cc1 (configuration not stated)" readout_type=z-score measurement=0.838
compound="O=C1CCCC2OC12C(O)CCc1ccccc1 (configuration not stated)" readout_type=z-score measurement=-0.521
compound=COc1ccc(-c2nc3c(c4c2C[C@H](C)OC4)CN(CCC(C)C)CC3)cc1 readout_type=z-score measurement=0.673
compound=C=CC[C@@H]1C=C[C@H](ON=C2c3cc(OC)ccc3O[C@H](c3cccc(OC)c3)[C@H]2O)[C@@H](CO)O1 readout_type=z-score measurement=0.637
compound="CCN(CC)c1ccc(N2CC=CC34O[C@@H]5/C=C\\CCC(C)OC(=O)C5[C@H]3C(=O)N(CCCO)[C@@H]4C2=O)cc1 (some centres not stated)" readout_type=z-score measurement=-0.223
compound=CCN1C(=O)[C@H]2[C@H]3[C@H](O)[C@H](O)CC(=NOCc4ccccc4)[C@H]3CC[C@H]2C1=O readout_type=z-score measurement=0.012
compound="O=C1NC(=O)C2C1C=CC(C(O)Cc1ccccc1)N2Nc1ccccn1 (configuration not stated)" readout_type=z-score measurement=-0.67
compound=CCOC(=O)NN=C1C[C@@H](O)[C@@H](O)[C@@H]2[C@@H]3C(=O)N(C4CCCCC4)C(=O)[C@@H]3CC[C@@H]12 readout_type=z-score measurement=0.0554
compound=CC(C)=C1C(=O)C(c2ccccc2)=C2CN3C(=O)N(CCc4ccccc4)C(=O)[C@]3(Cc3ccc(F)cc3)[C@H]21 readout_type=z-score measurement=4.68
compound="COC(=O)[C@@H]1CC[C@H](C)[C@@H](c2ccc(C)cc2)N1C(=O)c1ccc(C=NOC(C)CN2CCCCc3nc(C)c(C)cc32)cc1 (some centres not stated)" readout_type=z-score measurement=0.369

Source of measurements: PubChem BioAssay
